- Tested on: Escherichia coli TOP10;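 further: peptides expressed intracellularly from a pBAD plasmid library in pooled LB shake-flask culture, induced with 0.3% L-arabinose, DNA abundance read by NGS, three biological replicates, DESeq2 with apeglm shrinkage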
- Assay Info: shrunken log2 fold change of peptide-encoding DNA abundance (4.5 h post-induction vs induction); higher = less antimicrobial activity (less host growth inhibition)
- Test Context: time post-induction: 4.5 h; library: site-saturation at positions 5, 18, 19, 20
Entries and their shrunken log2 fold change values follow.
// no unit, no text: just the number

RRIRSRPPRLPRPRPRPNWWPRP: 0.022
RRIRGRPPRLPRPRPRPVDRPRP: 0.297
RRIRQRPPRLPRPRPRPPNPPRP: 0.109
RRIRIRPPRLPRPRPRPNGFPRP: -0.114
RRIRFRPPRLPRPRPRPFQKPRP: -0.00162

The sequence RRIRKRPPRLPRPRPRPSQNPRP showed shrunken log2 fold change equal to 0.269

sequence RRIRWRPPRLPRPRPRPAEQPRP , shrunken log2 fold change observed: -0.00651

# shrunken log2 fold change (sequence: RRIRIRPPRLPRPRPRPFWCPRP ) is -0.014

Input RRIRTRPPRLPRPRPRPYMMPRP . Output shrunken log2 fold change: 0.0264

Form field shrunken log2 fold change, entry RRIRLRPPRLPRPRPRPMFSPRP : -0.267

Lab note: RRIRERPPRLPRPRPRPAKGPRP gave shrunken log2 fold change of -0.321

// sample RRIRKRPPRLPRPRPRPDYRPRP , its shrunken log2 fold change was -0.157
